Kindly state inhibition at 1 µg/mL for each of the entries shown.
test system: NF-κB activation; test: NF-κB activation reporter assay (pNFκB-Luc luciferase) under TNF-α stimulation; format: cell-based, human; conditions: Homo sapiens; Concentration of the agent: 1 μg/mL; HepG2 or HeLa cells, TNF-α 40 ng/ml, 4 hours; read-out: The rate of inhibitory activity against NF-κB activation (%)
The answer should read as a number with its unit following.

COc1cc(NC(=O)c2cc(Br)ccc2O)cc(C(F)(F)F)c1 = 84.5%

Each of the following entries comes with a recorded value; kindly state inhibition at 1 µg/mL for each.
1. O=C(Nc1cc(C(F)(F)F)cc(C(F)(F)F)c1)c1cc(N=Nc2ccc([N+](=O)[O-])cc2)ccc1O
2. COCc1ccc(C(=O)C=Cc2ccc3c(c2)OCCCO3)c(O)c1
3. O=C(Nc1cc(C(F)(F)F)cc(C(F)(F)F)c1)c1c(O)[nH]c2cc(Cl)ccc12
4. O=C(Nc1cc(C(F)(F)F)cc(C(F)(F)F)c1)c1cc(Cl)ccc1O
5. O=C(Nc1nc(-c2ccccc2)c(-c2ccccc2)o1)c1cc(Br)ccc1O
6. CC(C)(C)c1nc(NC(=O)c2cc(Br)ccc2O)sc1C#N
7. O=C(Nc1cccc2ccccc12)c1cc(Cl)ccc1O

Result:
96.2%
35.3%
16.3%
96.3%
-10.1%
20%
89.3%

Each of the following entries comes with a recorded value; kindly state inhibition at 1 µg/mL for each.
1. CC(O)c1ccc(O)c(C(=O)Nc2cc(C(F)(F)F)cc(C(F)(F)F)c2)c1 (centres unmarked)
2. Cc1ccc(O)c(C(=O)Nc2cc(Cl)cc(Cl)c2)c1
3. O=C(Nc1cc(C(F)(F)F)cc(C(F)(F)F)c1)c1cc(Cl)cnc1O

Result:
1: 76.8%; 2: 49.1%; 3: 58.1%
